# Tested on: hippocampal neurogenesis (Dentate Gyrus)
# Experiment: in vivo neurogenesis assay (BrdU+ cells in dentate gyrus)
# Parameters: species or system mice
# Protocol Conditions: living mice; vehicle (DMSO) 7.3
Observable: Neurogenesis # BrdU+ Cells (X10E06)/mm3 Dentate Gyrus

Query: # Neurogenesis # BrdU+ Cells (X10E06)/mm3 Dentate Gyrus lookup, item OCc1cc2c(cn1)[nH]c1ccc(Br)cc12 [S204]
Response: 14.2 (X10E06)/mm3

Query: Look up Neurogenesis # BrdU+ Cells (X10E06)/mm3 Dentate Gyrus: O[C@H](COc1ccccc1)Cn1c2ccc(Br)cc2c2cc(Br)ccc21 [S41]
Response: 15.3 (X10E06)/mm3

Query: For OC(Cn1ccc2ccccc21)Cn1c2ccc(Br)cc2c2cc(Br)ccc21 (stereo not drawn) [S22] , what is its reported Neurogenesis # BrdU+ Cells (X10E06)/mm3 Dentate Gyrus?
Response: 6.7 (X10E06)/mm3

Query: Quick one: Neurogenesis # BrdU+ Cells (X10E06)/mm3 Dentate Gyrus of COc1cccc(NCC(O)CN2c3ccc(Br)cc3CCc3cc(Br)ccc32)c1 (stereo not drawn) [S76] ?
Response: 14.2 (X10E06)/mm3

Query: Name the recorded Neurogenesis # BrdU+ Cells (X10E06)/mm3 Dentate Gyrus for COc1cccc(N(/C=C/Cn2c3ccc(Br)cc3c3cc(Br)ccc32)S(=O)(=O)C(F)(F)F)c1 [S179] .
Response: 17.3 (X10E06)/mm3

Query: Quick check: Neurogenesis # BrdU+ Cells (X10E06)/mm3 Dentate Gyrus of CCC(C)N(C)C(=O)c1cc2ccccc2c(-c2ccccc2Cl)n1 (stereo not drawn) [S200, PK11195, reference compound] ?
Response: 11.1 (X10E06)/mm3

Query: Returns the measured Neurogenesis # BrdU+ Cells (X10E06)/mm3 Dentate Gyrus for the input compound. Input: c1ccc2c(c1)CCc1ccccc1N2 [S212]
Response: 10.3 (X10E06)/mm3

Query: GET /values?readout=Neurogenesis # BrdU+ Cells (X10E06)/mm3 Dentate Gyrus&item= COc1cccc(NC[C@H](O)Cn2c3ccc(Br)cc3c3cc(Br)ccc32)c1 [S16]
Response: 9.2 (X10E06)/mm3

Query: Need Neurogenesis # BrdU+ Cells (X10E06)/mm3 Dentate Gyrus, item CCOC(=O)c1cc2c3cc(Br)ccc3n(CC(O)COc3ccccc3)c2cn1 (stereo not drawn) [S174]
Response: 9.3 (X10E06)/mm3
